Tested on: catchweed bedstraw
assay_info: Test C pre-/postemergence test
Type: in vivo, Galium aparine
run_conditions: 62 g ai/ha, preemergence; scale 0 (no effect) to 100 (complete control)
measured_endpoint: Galium plant response rating
Output spec: single numeric token, no unit.

I'd like to know its Galium plant response rating. The compound in question is Cc1cc[n+]([O-])c(S(=O)(=O)C(C)c2c(C(F)(F)F)nn(C)c2OC(F)F)c1 (stereo not shown)
100

Similarly, Cn1nc(C(F)(F)F)c(CS(=O)(=O)c2ccc(Cl)c[n+]2[O-])c1OC(F)F ?
85

Similarly, Cn1nc(C(F)(F)F)c(C[S+]([O-])c2ccc(Br)c[n+]2[O-])c1OC(F)F (racemic) ?
100

Similarly, Cn1nc(C(F)(F)F)c(CS(=O)(=O)c2cccc[n+]2[O-])c1OC(F)F ?
90
